- protocol notes: Plasma protein binding by equilibrium dialysis
- condition info: pH 7.4
quantity measured: fraction unbound at 4 h, 1 μM

Input "CN1CCN(C2=Nc3cc(Cl)ccc3Nc3ccccc32)CC1" . Output fraction unbound at 4 h, 1 μM: 0.05

* * *

- protocol notes: in vitro
- condition info: plasma, pH 7.4
quantity measured: fraction unbound at 4 h, 1 μM
Numbers only.

The molecule listed as Clc1ccc2c(c1)N=C(N1CCNCC1)c1ccccc1N2 [N-desmethylclozapine] shows fraction unbound at 4 h, 1 μM equal to 0.11

* * *

- protocol notes: Pharmacokinetics
- condition info: both, rhesus monkey, CSF, sc, 10 mg/kg
Please provide measured Tmax for the entries that follow.
Give bare numbers, in h.

{"chemical string": "CN1CCN(C2=Nc3cc(Cl)ccc3Nc3ccccc32)CC1", "quantity measured": "Tmax", "measured value": 2.67}

For "Clc1ccc2c(c1)N=C(N1CCNCC1)c1ccccc1N2" the molecule record lists Tmax as 24

The reported measurements were obtained from paper PMC5522181.
